Data provenance: PubChem BioAssay

- assay comment: binders of probe aFGF10 on microarray, primary screen, stem cell growth factor project, biochemical, small-molecule microarray, fluorescence 635/667 (AID 1071);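 note: score merges 667 nm spot intensity and signal to noise from triplicate slides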
- applied conditions: higher = more signal
Below, each entry is listed with its recorded composite z-score.
Answer with a number only.

Reference set (6 entries):
compound="O=C1C2C=CC(C(O)c3ccc(B(O)O)cc3)N(Nc3ccccc3)C2C(=O)N1c1ccccc1 (configuration not stated)" metric_name="composite z-score" reported_value=-0.132
compound=Cc1ccc(S[C@]2(C(=O)NCC(C)C)CC(=O)N(Cc3ccccc3Cl)[C@@H]2c2ccc(CO)cc2)cc1 metric_name="composite z-score" reported_value=-0.584
compound=CC(=O)NCCCC[C@@H]1NC(=O)[C@@H]2C[C@H](C(=O)NCCCCN(C)C)[C@H](c3ccc(O)cc3)N2C1=O metric_name="composite z-score" reported_value=-0.971
compound="CS(=O)(=O)CCOC(=O)C1=CC(CCCO)=CC(c2cccs2)N(Cc2cc3c(cc2Br)OCO3)C=C1C(=O)OCCS(C)(=O)=O (configuration not stated)" metric_name="composite z-score" reported_value=0.517
compound=COc1ccc([Si](C)(C)[C@H]2[C@H](CC(=O)N(CCO)Cc3ccccc3)O[C@@]3(C(=O)N(Cc4cccc(N5CCC5=O)c4)c4ccccc43)[C@@H]2C)cc1 metric_name="composite z-score" reported_value=0.55
compound="CCOC(=O)C1=CCC(c2ccc(C#N)cc2)N(S(=O)(=O)c2ccc(C)cc2)C1 (configuration not stated)" metric_name="composite z-score" reported_value=0.446

Next item in the queue.
Ask: Record request: composite z-score value, item COc1ccc(CCNC(=O)[C@@]2(Sc3ccc(C)cc3)CC(=O)N(Cc3ccccc3Cl)[C@@H]2c2ccc(CO)cc2I)cc1
Result: 0.0404
